# target_under_test: murine intestinal cells (Mus musculus)
# experiment_summary: Ca2+ flux / calcium response assay (cell signaling activity)
# Format: cell-based
pEC50: −log10 of the molar value. No end group written: not given here.
observation_type: pEC50

substance="DSDKPYIL [Peptide 36038, D SDKPYIL]" recorded_value=8.21
substance="GDKPYIL [Peptide 36021, G DKPYIL]" recorded_value=8.54
substance="MSDKPYIL [Peptide 36046, M SDKPYIL]" recorded_value=8.31
substance="EDKPYIL [Peptide 36019, E DKPYIL]" recorded_value=8.40
substance="LKPYIL [Peptide 35985, L KPYIL]" recorded_value=9.48
substance="VDKPYIL [Peptide 36033, V DKPYIL]" recorded_value=8.31

----------
# experiment_summary: Stability of peptides in intestine homogenate, remaining activity read in intestinal cells
# Type: in vitro ADME, mice
# condition_notes: octapeptides; % activity left after 30 min incubation in intestine homogenate at 37° C.
No end group written: not given here.
Rule: measured Stability in intestine (activity remaining) below 6% gets satisfied; anything equal to or greater than 6% gets not satisfied.

biosequence="FSDKPYIL [Peptide 36040, F SDKPYIL]" qualitative_label=satisfied
biosequence="PSDKPYIL [Peptide 36048, P SDKPYIL]" qualitative_label=satisfied
biosequence="DSDKPYIL [Peptide 36038, D SDKPYIL]" qualitative_label="not satisfied"
biosequence="CSDKPYIL [Peptide 36037, C SDKPYIL]" qualitative_label="not satisfied"
biosequence="QSDKPYIL [Peptide 36049, Q SDKPYIL]" qualitative_label="not satisfied"
biosequence="SSDKPYIL [Peptide 36051, S SDKPYIL]" qualitative_label="not satisfied"
biosequence="MSDKPYIL [Peptide 36046, M SDKPYIL]" qualitative_label=satisfied
biosequence="WSDKPYIL [Peptide 36054, W SDKPYIL]" qualitative_label=satisfied
biosequence="LSDKPYIL [Peptide 36045, L SDKPYIL]" qualitative_label="not satisfied"
biosequence="GSDKPYIL [Peptide 36041, G SDKPYIL]" qualitative_label="not satisfied"
biosequence="YSDKPYIL [Peptide 36055, Y SDKPYIL]" qualitative_label=satisfied
biosequence="KSDKPYIL [Peptide 36044, K SDKPYIL]" qualitative_label="not satisfied"
biosequence="VSDKPYIL [Peptide 36053, V SDKPYIL]" qualitative_label=satisfied
biosequence="NSDKPYIL [Peptide 36047, N SDKPYIL]" qualitative_label=satisfied
biosequence="HSDKPYIL [Peptide 36042, H SDKPYIL]" qualitative_label="not satisfied"
biosequence="TSDKPYIL [Peptide 36052, T SDKPYIL]" qualitative_label="not satisfied"
biosequence="ESDKPYIL [Peptide 36039, E SDKPYIL]" qualitative_label="not satisfied"
biosequence="RSDKPYIL [Peptide 36050, R SDKPYIL]" qualitative_label=satisfied

----------
# target_under_test: murine intestinal cells (Mus musculus, UniProt O88319)
# Sequence (O88319 whole entry): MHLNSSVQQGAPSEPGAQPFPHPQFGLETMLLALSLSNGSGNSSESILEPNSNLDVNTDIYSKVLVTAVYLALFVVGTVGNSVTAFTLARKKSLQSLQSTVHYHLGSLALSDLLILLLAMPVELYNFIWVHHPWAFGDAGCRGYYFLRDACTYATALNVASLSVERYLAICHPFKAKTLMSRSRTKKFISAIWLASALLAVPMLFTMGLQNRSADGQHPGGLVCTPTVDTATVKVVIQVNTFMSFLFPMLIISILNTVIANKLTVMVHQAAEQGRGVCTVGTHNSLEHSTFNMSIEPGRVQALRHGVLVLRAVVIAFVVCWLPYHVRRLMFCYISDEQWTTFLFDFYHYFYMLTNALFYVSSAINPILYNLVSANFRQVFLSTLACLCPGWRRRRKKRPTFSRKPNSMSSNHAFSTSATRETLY
# experiment_summary: Ca2+ flux / calcium response assay (cell signaling activity)
# Format: cell-based
No end group written: not given here.
A collection of substances and their measured EC50
observation_type: EC50 (nM)

substance="YDKPYIL [Peptide 36035, Y DKPYIL]" recorded_value=6.83
substance="TDKPYIL [Peptide 36032, T DKPYIL]" recorded_value=5.61
substance="VKPYIL [Peptide 35993, V KPYIL]" recorded_value=1.17
substance="KSDKPYIL [Peptide 36044, K SDKPYIL]" recorded_value=10.7
substance="PSDKPYIL [Peptide 36048, P SDKPYIL]" recorded_value=4.14
substance="ISDKPYIL [Peptide 36043, I SDKPYIL]" recorded_value=6.87
substance="ADKPYIL [Peptide 36016, A DKPYIL]" recorded_value=3.52
substance="IKPYIL [Peptide 35983, I KPYIL]" recorded_value=0.24
substance="TSDKPYIL [Peptide 36052, T SDKPYIL]" recorded_value=5.63
substance="CSDKPYIL [Peptide 36037, C SDKPYIL]" recorded_value=5.44
substance="MDKPYIL [Peptide 36026, M DKPYIL]" recorded_value=6.08
substance="MKPYIL [Peptide 35986, M KPYIL]" recorded_value=0.388

----------
# experiment_summary: Stability of peptides in serum, remaining activity read in intestinal cells
# Type: in vitro ADME, Bovine
# condition_notes: octapeptides; fraction of peptide activity left after 10 min of incubation in serum at 37° C. compared with undigested sample
# Method: All peptides were incubated at 10^−5 M with Fetal Bovine Serum (FBS; final concentration of 66.7%) (Sigma Aldrich, Denmark) at 37° C. for 3 hours. The peptide degradation was terminated using 1 M phosphoric acid (final 0.4 M, pH˜1.2) and neutralized to pH 7.2-7.4 with NaOH before testing activity in intestinal cells. As for small intestine homogenates, a zero degradation control was included for each peptide. […]
No end group written: not given here.
Catalogue of sequences with associated Stability in serum (activity remaining)
observation_type: Stability in serum (activity remaining)

biosequence="CSDKPYIL [Peptide 36037, C SDKPYIL]" recorded_value=0.0963
biosequence="HSDKPYIL [Peptide 36042, H SDKPYIL]" recorded_value=0.0980
biosequence="ASDKPYIL [Peptide 36036, A SDKPYIL]" recorded_value=0.0988
biosequence="MSDKPYIL [Peptide 36046, M SDKPYIL]" recorded_value=0.0762
biosequence="YSDKPYIL [Peptide 36055, Y SDKPYIL]" recorded_value=0.0491
biosequence="TSDKPYIL [Peptide 36052, T SDKPYIL]" recorded_value=0.0535
biosequence="RSDKPYIL [Peptide 36050, R SDKPYIL]" recorded_value=0.0735
biosequence="SSDKPYIL [Peptide 36051, S SDKPYIL]" recorded_value=0.0609

----------
# target_under_test: murine intestinal cells (Mus musculus, UniProt O88319)
# experiment_summary: Ca2+ flux / calcium response assay (cell signaling activity)
observation_type: EC50 (nM)

compound="CC[C@H](C)[C@H](NC(=O)[C@H](Cc1ccc(O)cc1)NC(=O)[C@@H]1CCCN1C(=O)[C@@H](N)CCCNC(=N)N)C(=O)N[C@@H](CC(C)C)C(=O)O [Peptide 36010, R PYIL]" target_under_test="murine intestinal cells (Mus musculus, UniProt O88319)" units=nM recorded_value=1.18

----------
# target_under_test: murine intestinal cells (Mus musculus)
# experiment_summary: Ca2+ flux / calcium response assay (cell signaling activity)
# Format: cell-based
pEC50: −log10 of the molar value. No end group written: not given here.
observation_type: pEC50

substance="QSDKPYIL [Peptide 36049, Q SDKPYIL]" recorded_value=8.40
substance="RSDKPYIL [Peptide 36050, R SDKPYIL]" recorded_value=8.40
substance="SKPYIL [Peptide 35991, S KPYIL]" recorded_value=8.94
substance="DDKPYIL [Peptide 36018, D DKPYIL]" recorded_value=7.98
substance="QDKPYIL [Peptide 36029, Q DKPYIL]" recorded_value=8.30
substance="LSDKPYIL [Peptide 36045, L SDKPYIL]" recorded_value=8.09
substance="LDKPYIL [Peptide 36025, L DKPYIL]" recorded_value=8.19

----------
# target_under_test: murine intestinal cells (Mus musculus)
# experiment_summary: Ca2+ flux / calcium response assay (cell signaling activity)
# Type: cell-based
pEC50: −log10 of the molar value. No end group written: not given here.
observation_type: pEC50

substance="HDKPYIL [Peptide 36022, H DKPYIL]" observation_type=pEC50 recorded_value=8.58
substance="SSDKPYIL [Peptide 36051, S SDKPYIL]" observation_type=pEC50 recorded_value=8.37
substance="NSDKPYIL [Peptide 36047, N SDKPYIL]" observation_type=pEC50 recorded_value=8.36
substance="PKPYIL [Peptide 35988, P KPYIL]" observation_type=pEC50 recorded_value=9.63
substance="CDKPYIL [Peptide 36017, C DKPYIL]" observation_type=pEC50 recorded_value=8.11
substance="WSDKPYIL [Peptide 36054, W SDKPYIL]" observation_type=pEC50 recorded_value=8.05
substance="VSDKPYIL [Peptide 36053, V SDKPYIL]" observation_type=pEC50 recorded_value=8.29
substance="HSDKPYIL [Peptide 36042, H SDKPYIL]" observation_type=pEC50 recorded_value=8.44
substance="RDKPYIL [Peptide 36030, R DKPYIL]" observation_type=pEC50 recorded_value=8.33
substance="YSDKPYIL [Peptide 36055, Y SDKPYIL]" observation_type=pEC50 recorded_value=8.23
substance="KDKPYIL [Peptide 36024, K DKPYIL]" observation_type=pEC50 recorded_value=7.95
substance="WKPYIL [Peptide 35994, W KPYIL]" observation_type=pEC50 recorded_value=8.25
substance="TKPYIL [Peptide 35992, T KPYIL]" observation_type=pEC50 recorded_value=8.94
substance="PDKPYIL [Peptide 36028, P DKPYIL]" observation_type=pEC50 recorded_value=8.33
substance="IDKPYIL [Peptide 36023, I DKPYIL]" observation_type=pEC50 recorded_value=8.32
substance="NDKPYIL [Peptide 36027, N DKPYIL]" observation_type=pEC50 recorded_value=8.23
substance="ASDKPYIL [Peptide 36036, A SDKPYIL]" observation_type=pEC50 recorded_value=8.45
substance="FSDKPYIL [Peptide 36040, F SDKPYIL]" observation_type=pEC50 recorded_value=8.41
substance="YKPYIL [Peptide 35995, Y KPYIL]" observation_type=pEC50 recorded_value=8.48
substance="GSDKPYIL [Peptide 36041, G SDKPYIL]" observation_type=pEC50 recorded_value=8.39
substance="FDKPYIL [Peptide 36020, F DKPYIL]" observation_type=pEC50 recorded_value=8.02
substance="ESDKPYIL [Peptide 36039, E SDKPYIL]" observation_type=pEC50 recorded_value=8.32
substance="WDKPYIL [Peptide 36034, W DKPYIL]" observation_type=pEC50 recorded_value=7.85
substance="SDKPYIL [Peptide 36031, S DKPYIL]" observation_type=pEC50 recorded_value=8.30
substance="QKPYIL [Peptide 35989, Q KPYIL]" observation_type=pEC50 recorded_value=9.42
substance="NKPYIL [Peptide 35987, N KPYIL]" observation_type=pEC50 recorded_value=9.30
